Source of measurements: patent US20190247361A1

target: CYP2C19 (Homo sapiens); assay: metabolism by CYP2C19 isoform; format: in vitro ADME; settings: human
Sequence (P33261 whole entry, canonical isoform): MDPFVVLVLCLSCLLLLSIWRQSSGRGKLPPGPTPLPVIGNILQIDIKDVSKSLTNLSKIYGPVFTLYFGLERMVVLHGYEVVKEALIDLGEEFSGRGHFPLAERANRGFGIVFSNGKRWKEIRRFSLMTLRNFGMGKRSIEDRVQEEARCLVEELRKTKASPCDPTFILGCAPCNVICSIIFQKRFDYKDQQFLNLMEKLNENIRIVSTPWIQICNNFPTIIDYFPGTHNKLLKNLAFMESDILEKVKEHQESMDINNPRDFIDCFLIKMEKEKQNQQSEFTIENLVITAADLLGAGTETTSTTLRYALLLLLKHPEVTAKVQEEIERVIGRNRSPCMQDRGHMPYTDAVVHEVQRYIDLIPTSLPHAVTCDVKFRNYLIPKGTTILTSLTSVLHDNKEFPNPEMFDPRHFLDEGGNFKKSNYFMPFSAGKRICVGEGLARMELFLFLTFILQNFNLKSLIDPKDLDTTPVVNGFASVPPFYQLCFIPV

{"Molecule": "CO/N=C1\\C[C@@H](CO)N(C(=O)c2ccc(-c3ccccc3C)cc2)C1 [(3E) isomer, reference compound]", "half-life at 5 μM [min]": 41.4}
{"Molecule": "CO/N=C1/C[C@@H](CO)N(C(=O)c2ccc(-c3ccccc3C)cc2)C1 [Compound (II)]", "half-life at 5 μM [min]": 60.4}

###

Parameter: half-life at 5 μM. Scope: all listed entries.
target: CYP2D6 (Homo sapiens); assay: metabolism by CYP2D6 isoform; format: in vitro ADME; settings: human
Sequence (P10635 whole entry, canonical isoform): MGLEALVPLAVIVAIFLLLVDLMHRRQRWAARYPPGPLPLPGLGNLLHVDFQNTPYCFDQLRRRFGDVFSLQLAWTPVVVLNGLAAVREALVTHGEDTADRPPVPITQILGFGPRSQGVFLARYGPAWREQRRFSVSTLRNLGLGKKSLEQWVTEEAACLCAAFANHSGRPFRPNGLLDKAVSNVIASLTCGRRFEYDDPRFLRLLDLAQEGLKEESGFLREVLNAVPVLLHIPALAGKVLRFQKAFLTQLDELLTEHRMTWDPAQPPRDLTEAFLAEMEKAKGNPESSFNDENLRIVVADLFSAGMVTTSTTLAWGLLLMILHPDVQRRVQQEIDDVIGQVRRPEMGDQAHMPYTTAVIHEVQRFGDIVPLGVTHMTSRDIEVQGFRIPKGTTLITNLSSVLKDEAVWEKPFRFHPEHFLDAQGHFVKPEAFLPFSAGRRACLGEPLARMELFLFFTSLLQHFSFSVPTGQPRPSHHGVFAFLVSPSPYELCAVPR

{"Compound": "CO/N=C1\\C[C@@H](CO)N(C(=O)c2ccc(-c3ccccc3C)cc2)C1 [(3E) isomer, reference compound]", "Measurement Target": "CYP2D6 (Homo sapiens)", "U": "min", "half-life at 5 μM": 5.62}
{"Compound": "CO/N=C1/C[C@@H](CO)N(C(=O)c2ccc(-c3ccccc3C)cc2)C1 [Compound (II)]", "Measurement Target": "CYP2D6 (Homo sapiens)", "U": "min", "half-life at 5 μM": 14.5}

###

tested on: cytochrome P450 in combination with UGT; assay: microsomal stability, pooled liver microsomes, cytochrome P450 in combination with UGT; format: in vitro ADME; details: 45 minute experiment, read-out: t1/2, Metabolic Stability - CYP/UGT

{"Molecule": "CO/N=C1/C[C@@H](CO)N(C(=O)c2ccc(-c3ccccc3C)cc2)C1 [Compound (II)]", "half-life at 3 μM / h": 2.48}
{"Molecule": "CO/N=C1\\C[C@@H](CO)N(C(=O)c2ccc(-c3ccccc3C)cc2)C1 [(3E) isomer, reference compound]", "half-life at 3 μM / h": 4.3}

###

tested on: cytochrome P450 in combination with UGT; test: microsomal stability, pooled liver microsomes, cytochrome P450 in combination with UGT; assay type: in vitro ADME; settings: 45 minute experiment, read-out: CLint, Metabolic Stability - CYP/UGT

{"Molecule": "CO/N=C1\\C[C@@H](CO)N(C(=O)c2ccc(-c3ccccc3C)cc2)C1 [(3E) isomer, reference compound]", "Measurement Target": "cytochrome P450 in combination with UGT", "microsomal CLint at 3 μM (µL/min/mg)": 5.38}
{"Molecule": "CO/N=C1/C[C@@H](CO)N(C(=O)c2ccc(-c3ccccc3C)cc2)C1 [Compound (II)]", "Measurement Target": "cytochrome P450 in combination with UGT", "microsomal CLint at 3 μM (µL/min/mg)": 9.33}

###

experiment: serum compound (II) level at time of embryo transfer (Phase 2 study); assay type: in vivo; conditions: female, human, 300 mg dose, oral, about 3.5 hours after administration, mean (standard deviation)
Measurement Label: concentration at 3.5 h (ng/mL)

{"Compound": "CO/N=C1/C[C@@H](CO)N(C(=O)c2ccc(-c3ccccc3C)cc2)C1 [Compound (II)]", "Observed Measurement": 1450}

###

tested on: cytochrome P450; assay: microsomal stability, pooled liver microsomes, cytochrome P450 alone; type: in vitro ADME; conditions: 45 minute experiment, read-out: t1/2, Metabolic Stability - CYP
Parameter: half-life at 3 μM. Scope: all listed entries.

{"Molecule": "CO/N=C1/C[C@@H](CO)N(C(=O)c2ccc(-c3ccccc3C)cc2)C1", "U": "h", "half-life at 3 μM": 2}
{"Molecule": "CO/N=C1\\C[C@@H](CO)N(C(=O)c2ccc(-c3ccccc3C)cc2)C1 [(3E) isomer, reference compound]", "U": "h", "half-life at 3 μM": 3.6}

###

experiment: serum compound (II) level at time of embryo transfer (Phase 2 study); format: in vivo; details: female, human, 900 mg dose, oral, about 3.5 hours after administration, mean (standard deviation)

{"Chemical Smiles": "CO/N=C1/C[C@@H](CO)N(C(=O)c2ccc(-c3ccccc3C)cc2)C1", "concentration at 3.5 h": "4160 ng/mL"}

###

assay: serum compound (II) level at time of embryo transfer (Phase 2 study); assay type: in vivo; conditions: female, human, 100 mg dose, oral, about 3.5 hours after administration, mean (standard deviation)
Measurement Label: concentration at 3.5 h (ng/mL)

{"Compound": "CO/N=C1/C[C@@H](CO)N(C(=O)c2ccc(-c3ccccc3C)cc2)C1 [Compound (II)]", "Observed Measurement": 484}

###

Parameter: microsomal CLint at 3 μM. Scope: all listed entries.
system: cytochrome P450; assay: microsomal stability, pooled liver microsomes, cytochrome P450 alone; type: in vitro ADME; details: 45 minute experiment, read-out: CLint, Metabolic Stability - CYP
Measurement Label: microsomal CLint at 3 μM (µL/min/mg)

{"Compound": "CO/N=C1\\C[C@@H](CO)N(C(=O)c2ccc(-c3ccccc3C)cc2)C1 [(3E) isomer, reference compound]", "Measurement Target": "cytochrome P450", "U": "µL/min/mg", "Observed Measurement": 6.4}
{"Compound": "CO/N=C1/C[C@@H](CO)N(C(=O)c2ccc(-c3ccccc3C)cc2)C1", "Measurement Target": "cytochrome P450", "U": "µL/min/mg", "Observed Measurement": 11.6}
